method summary: Binding affinity against kappa opioid receptor from calf frontal cortex.
Below, each of the compounds is paired with its reported IC50 value.
Answer with a number only, understood to be in nM.

{"compound": "C[C@@]12Oc3c(O)ccc4c3C13CCN(CC1CC1)C(C4)[C@]3(NC(=O)CCc1ccc([N+](=O)[O-])cc1)CCC2=O (some centres undefined)", "observed value": 162}
{"compound": "CN1CCC23c4c5ccc(O)c4O[C@@]2(C)C(=O)CC[C@@]3(NC(=O)/C=C/c2ccc([N+](=O)[O-])cc2)C1C5 (some centres undefined)", "observed value": 116}

Please fill in: IC50 reported for `CN1CC[C@]23c4c5ccc(O)c4O[C@H]2C(=O)CC[C@@]3(NC(=O)/C=C/c2ccc([N+](=O)[O-])cc2)[C@H]1C5` = 6.6

So for COc1ccc2c3c1O[C@H]1C(=O)C=C[C@@]4(NC(=O)C=Cc5ccc([N+](=O)[O-])cc5)C(C2)N(C)CCC314 (some centres undefined) , the logged IC50 turned out to be 68

Provenance of the data: BindingDB's records for doi:10.1021/jm00073a015
